assay: phase 1 first-in-human trial, multiple ascending dose (MAD) PK; type: in vivo; conditions: human, plasma, oral, 300 mg, healthy volunteers, fasted; 300 mg QD; Day 1; read-out: AUC(0-tau) (geometric mean)
Recorded Endpoint: AUC

Brc1cccc(-c2cc(-c3ccc4c(c3)OCO4)n[nH]2)c1 [anle138b] | ~2210 ng·h/mL

###

assay: phase 1 study in patients with mild to moderate Parkinson's disease (PK, safety); type: in vivo, human; conditions: human, plasma, oral, 150 mg, PD patients; Regimen C 150 mg BID, fast; Day 7; tau 12 h; read-out: Ctau (geometric mean)
Recorded Endpoint: concentration at 12 h (ng/mL)

Brc1cccc(-c2cc(-c3ccc4c(c3)OCO4)n[nH]2)c1 [anle138b] | 4.05

The measured values listed here are drawn from patent US20250161273A1.
